Assay: Inhibition of Saccharomyces cerevisiae alpha-glucosidase using p-nitrophenyl-alpha-D-glucopyranoside substrate incubated for 30 mins
Readings of IC50 for the listed molecules
quantity_measured: IC50 (µM)

1. C=C1[C@@H](OC(=O)/C=C/c2ccccc2)C[C@H](OC(C)=O)[C@@]2(C)[C@@H](OC(C)=O)[C@H](OC(C)=O)C3=C(C)C(=O)C[C@@H]([C@@H](OC(C)=O)[C@H]12)C3(C)C | 111
2. COc1cc(C[C@@H]2COC(=O)[C@H]2Cc2ccc(O)c(OC)c2)ccc1O | 175

====

Readings of pIC50 for the listed compounds
Assay: Inhibition of Saccharomyces cerevisiae alpha-glucosidase using p-nitrophenyl-alpha-D-glucopyranoside substrate incubated for 30 mins
pIC50: −log10 of the molar value.
quantity_measured: pIC50

1. C=C1[C@@H](OC(C)=O)CC[C@@]2(C)C[C@H](OC(C)=O)C3=C(C)C[C@H](OC(=O)C(C)C(C)O)[C@@H]([C@@H](OC(C)=O)[C@H]12)C3(C)C (stereo not given in full) | 3.71
2. C=C1[C@@H](OC(=O)/C=C/c2ccccc2)C[C@H](OC(C)=O)[C@]2(C)[C@@H]1C[C@@H]1C[C@H](O)C(C)=C([C@@H](OC(C)=O)[C@@H]2OC(C)=O)C1(C)C [TAXEZOPIDINE H] | 4.82
3. C/C=C(\C)C(=O)N[C@@H](c1ccccc1)[C@@H](O)C(=O)O[C@H]1C[C@@]2(O)[C@@H](OC(=O)c3ccccc3)[C@@H]3[C@]4(OC(C)=O)CO[C@@H]4C[C@H](O[C@@H]4OC[C@@H](O)[C@H](O)[C@H]4O)[C@@]3(C)C(=O)C(=O)C(=C1C)C2(C)C | 3.85
4. CC(=O)O[C@@]12CO[C@@H]1C[C@@H](O)[C@@]1(C)C(=O)[C@H](O)C3=C(C)[C@@H](OC(=O)[C@H](O)[C@@H](NC(=O)c4ccccc4)c4ccccc4)C[C@@](O)([C@@H](OC(=O)c4ccccc4)[C@H]21)C3(C)C | 4.31

====

Readings of pIC50 for the listed compounds
Assay: Inhibition of Saccharomyces cerevisiae alpha-glucosidase using p-nitrophenyl-alpha-D-glucopyranoside substrate incubated for 30 mins
pIC50: −log10 of the molar value.
quantity_measured: pIC50

1. C[C@H]1O[C@H](O[C@H]2[C@H](O)[C@@H](O)[C@@H](O[C@H]3[C@H](O)[C@@H](O)C(O)O[C@@H]3CO)O[C@@H]2CO)[C@H](O)[C@@H](O)[C@@H]1N[C@H]1C=C(CO)[C@@H](O)[C@H](O)[C@H]1O (some centres undefined) | 3.67
2. COc1cc(C[C@H]2COC(=O)[C@@H]2Cc2ccc(O)c(OC)c2)ccc1O | 4.33
3. C=C1[C@@H](OC(C)=O)CC[C@@]2(C)C[C@H](OC)C3=C(C)C[C@H](OC(=O)C(C)C(C)O)[C@@H]([C@@H](OC(C)=O)[C@H]12)C3(C)C (some centres undefined) | 5.44
4. CC(=O)O[C@@]12CO[C@@H]1C[C@H](O[C@@H]1OC[C@@H](O)[C@H](O)[C@H]1O)[C@@]1(C)C(=O)C(=O)C3=C(C)CC[C@@]3(C(C)(C)OC(=O)c3ccccc3)[C@@H](O)[C@H]21 | 4.08
5. CO[C@H]1O[C@H]2[C@@H]3[C@@H]1[C@@H](O)C[C@H](O)[C@@]3(C)[C@@H](O)[C@H](OC(C)=O)C1=C(C)[C@@H](OC(C)=O)C[C@]2(O)C1(C)C | 4.01
6. C=C1[C@@H](OC(=O)/C=C/c2ccccc2)C[C@H](OC(C)=O)[C@]2(C)[C@@H]1C[C@@H]1C[C@H](OC(C)=O)C(C)=C([C@@H](OC(C)=O)[C@@H]2OC(C)=O)C1(C)C | 4.42
7. CC(=O)O[C@H]1C(=O)[C@]2(C)[C@H](O)C[C@H]3OC[C@@]3(OC(C)=O)[C@H]2[C@H](OC(=O)c2ccccc2)[C@]2(O)C[C@H](OC(=O)[C@H](O)[C@@H](NC(=O)c3ccccc3)c3ccccc3)C(C)=C1C2(C)C | 4.37
8. C=C1[C@H]2C[C@]34CC=C(C)C3[C@@H](OC4(C)C)[C@H](OC(C)=O)[C@]2(C)[C@@H](OC(C)=O)C[C@@H]1O (some centres undefined) | 4.05
9. C=C1[C@@H](O)CC[C@@]2(C)C[C@H](OC)C3=C(C)C[C@H](OC(=O)C(C)C(C)O)[C@@H]([C@@H](OC(C)=O)[C@H]12)C3(C)C (some centres undefined) | 3.95
10. C=C1[C@@H](OC(C)=O)CC[C@@]2(C)C[C@H](OC)C3=C(C)C[C@H](OC(C)=O)[C@@H]([C@@H](OC(C)=O)[C@H]12)C3(C)C | 4.50
11. COc1cc([C@H]2c3cc(O)c(OC)cc3C[C@H]3C(=O)OC[C@H]23)ccc1O | 3.71
12. CC(C)CC[C@@H](O)[C@](C)(O)[C@H]1CC[C@@]2(O)C3=CC(=O)[C@@H]4C[C@@H](O)[C@@H](O)C[C@]4(C)[C@H]3CC[C@]12C | 3.94
13. CCCCCC(=O)N[C@@H](c1ccccc1)[C@@H](O)C(=O)O[C@H]1C[C@@]2(O)[C@@H](OC(=O)c3ccccc3)[C@@H]3[C@]4(OC(C)=O)CO[C@@H]4C[C@H](O[C@@H]4OC[C@@H](O)[C@H](O)[C@H]4O)[C@@]3(C)C(=O)[C@H](O)C(=C1C)C2(C)C | 4.06
